Reference source for all entries: patent US10723711B2

assay: Prodrug in vivo pharmacokinetics in dogs after intravenous administration (LC-MS-MS of prodrug and parent); details: beagle, dog, in vivo, iv, 0.7 mg/kg, CL, Example 31 in plasma, IV Example 31 at 0.7 mg/kg, Mean

COMPOUND: O=C(O[C@H](COP(=O)([O-])[O-])C(F)(F)F)N1CCC2(CC1)C[C@@H](NS(=O)(=O)c1ccccc1)CO2.[Na+].[Na+] [Example 31]
UNIT LABEL: mL/min/kg
clearance: 162

###

Biological target: human recombinant Monoacylglycerol Lipase (Homo sapiens)
Sequence (Q99685 1-303): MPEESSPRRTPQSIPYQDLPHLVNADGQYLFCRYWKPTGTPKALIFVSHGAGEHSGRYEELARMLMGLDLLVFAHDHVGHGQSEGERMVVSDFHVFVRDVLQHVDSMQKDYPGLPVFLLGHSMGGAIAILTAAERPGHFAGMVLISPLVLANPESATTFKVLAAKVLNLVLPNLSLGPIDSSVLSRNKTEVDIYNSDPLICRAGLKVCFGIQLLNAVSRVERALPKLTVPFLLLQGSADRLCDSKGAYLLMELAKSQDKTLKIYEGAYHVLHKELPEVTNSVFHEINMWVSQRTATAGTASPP
Test: MAGL inactivation, enzyme progress curves, kinact/KI
Format: biochemical
Conditions: from enzyme progress curves, T = 0 min protocol; geometric mean of 2-4 determinations unless otherwise indicated
MEASURED PROPERTY: MAGL kinact/KI

MOLECULE: CN(C1COC2(CCN(C(=O)O[C@H](CO)C(F)(F)F)CC2)C1)S(=O)(=O)c1ccc(F)cc1 (single isomer, unassigned) [Example 111]
VALUE: 33483 1/s per M

MOLECULE: CC(c1ccc(F)cc1)N1CCOC2(CCN(C(=O)O[C@H](CO)C(F)(F)F)CC2)C1 (single isomer, unassigned) [Example 44]
VALUE: 3701 1/s per M

MOLECULE: CN(C1COC2(CCN(C(=O)O[C@H](CO)C(F)(F)F)CC2)C1)S(=O)(=O)C1CCC1 (mixture of isomers) [Example 113]
VALUE: 6254 1/s per M

MOLECULE: CN([C@H]1COC2(CCN(C(=O)O[C@H](CO)C(F)(F)F)CC2)C1)S(=O)(=O)C1CC1 [Example 93]
VALUE: 3282 1/s per M

MOLECULE: COc1ccc(C2COC3(CCN(C(=O)O[C@H](CO)C(F)(F)F)CC3)C2)nc1 (mixture of isomers) [Example 121]
VALUE: 1207 1/s per M

MOLECULE: CC1N(S(=O)(=O)c2ccc(F)cc2)CCOC12CCN(C(=O)O[C@H](CO)C(F)(F)F)CC2 (single isomer, unassigned) [Example 71]
VALUE: 9358 1/s per M

MOLECULE: C#Cc1ccc(S(=O)(=O)N2CCOC3(CCN(C(=O)O[C@H](CO)C(F)(F)F)CC3)C2)cc1 [Example 68]
VALUE: 16586 1/s per M

MOLECULE: CC(C)CS(=O)(=O)N(C)[C@H]1COC2(CCN(C(=O)O[C@H](CO)C(F)(F)F)CC2)C1 [Example 139]
VALUE: 3058 1/s per M

MOLECULE: O=C(O[C@H](CO)C(F)(F)F)N1CCC2(CC1)CCN(C(=O)c1nccs1)C2 [Example 125]
VALUE: 5464 1/s per M

MOLECULE: O=C(O[C@H](CO)C(F)(F)F)N1CCC2(CC1)CN(S(=O)(=O)c1cccc(Cl)c1)CCO2 [Example 83]
VALUE: 21997^d 1/s per M

MOLECULE: CN([C@H]1COC2(CCN(C(=O)O[C@H](CO)C(F)(F)F)CC2)C1)S(=O)(=O)c1cnn(C)c1 [Example 138]
VALUE: 2154 1/s per M

MOLECULE: O=C(O[C@H](CO)C(F)(F)F)N1CCC2(CC1)CCN(C(=O)C1CCCC1)C2 [Example 124]
VALUE: 6720 1/s per M

MOLECULE: Cc1cc(S(=O)(=O)N2CCOC3(CCN(C(=O)O[C@H](CO)C(F)(F)F)CC3)C2)ccc1F [Example 51]
VALUE: 10340 1/s per M

MOLECULE: O=C(O)C(F)(F)F.O=C(O[C@H](CO)C(F)(F)F)N1CCC2(CC1)CC(c1ccc(F)cn1)CO2 (mixture of isomers) [Example 97]
VALUE: 1897 1/s per M
